target: T1, Pex1-FLAG/His-Pex6 hexamer, wild type (S. cerevisiae, UniProt P24004 1-1043; P33760 1-1030); assay: inhibition of ATPase activity (ATP/NADH coupled enzyme assay); apparent KD from the concentration-dependent inhibition of the ATPase activity of 5 nM Pex1/Pex6 by titrated Pex15; 5 mM ATP, 2 uM BSA; n = 3 technical replicates; details: both partners purified
T1 construct: Pex1, S. cerevisiae W303; Pex6, S. cerevisiae W303; Heterohexamer with alternating subunits; also called WT Pex1/Pex6; Pex1/Pex6; source: E. coli BL21*, co-expressed, purified (Ni-NTA, anti-FLAG, Superose6); copies: 3 + 3
T1 sequence (P24004 whole entry, chain 1 of 2): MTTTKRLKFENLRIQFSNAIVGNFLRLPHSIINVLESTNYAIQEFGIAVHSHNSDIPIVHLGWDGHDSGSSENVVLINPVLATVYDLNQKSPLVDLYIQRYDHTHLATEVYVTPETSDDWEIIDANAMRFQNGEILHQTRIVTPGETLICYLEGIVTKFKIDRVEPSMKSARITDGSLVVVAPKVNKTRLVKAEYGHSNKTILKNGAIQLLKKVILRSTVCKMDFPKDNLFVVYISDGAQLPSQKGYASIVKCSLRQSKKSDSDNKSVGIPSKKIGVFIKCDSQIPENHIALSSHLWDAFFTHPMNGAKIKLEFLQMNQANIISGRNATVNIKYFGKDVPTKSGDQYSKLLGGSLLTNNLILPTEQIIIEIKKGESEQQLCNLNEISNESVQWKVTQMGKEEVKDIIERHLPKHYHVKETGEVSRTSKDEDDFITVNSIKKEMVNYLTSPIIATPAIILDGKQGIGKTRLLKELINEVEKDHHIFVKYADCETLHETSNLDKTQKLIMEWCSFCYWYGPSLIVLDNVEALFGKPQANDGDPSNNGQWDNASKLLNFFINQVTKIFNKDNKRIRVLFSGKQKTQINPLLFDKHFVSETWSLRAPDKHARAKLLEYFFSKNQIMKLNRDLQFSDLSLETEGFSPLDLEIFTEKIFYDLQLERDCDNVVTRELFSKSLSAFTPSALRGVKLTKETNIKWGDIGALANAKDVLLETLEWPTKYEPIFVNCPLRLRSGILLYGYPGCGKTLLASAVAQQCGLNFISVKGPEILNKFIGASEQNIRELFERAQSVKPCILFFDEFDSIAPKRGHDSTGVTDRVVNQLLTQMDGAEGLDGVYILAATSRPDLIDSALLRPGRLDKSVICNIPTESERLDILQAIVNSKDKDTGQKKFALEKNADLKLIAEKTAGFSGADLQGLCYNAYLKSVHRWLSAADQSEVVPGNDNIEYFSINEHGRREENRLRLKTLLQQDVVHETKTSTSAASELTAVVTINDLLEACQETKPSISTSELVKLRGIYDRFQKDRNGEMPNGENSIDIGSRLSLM
T1 sequence (P33760 whole entry, chain 2 of 2): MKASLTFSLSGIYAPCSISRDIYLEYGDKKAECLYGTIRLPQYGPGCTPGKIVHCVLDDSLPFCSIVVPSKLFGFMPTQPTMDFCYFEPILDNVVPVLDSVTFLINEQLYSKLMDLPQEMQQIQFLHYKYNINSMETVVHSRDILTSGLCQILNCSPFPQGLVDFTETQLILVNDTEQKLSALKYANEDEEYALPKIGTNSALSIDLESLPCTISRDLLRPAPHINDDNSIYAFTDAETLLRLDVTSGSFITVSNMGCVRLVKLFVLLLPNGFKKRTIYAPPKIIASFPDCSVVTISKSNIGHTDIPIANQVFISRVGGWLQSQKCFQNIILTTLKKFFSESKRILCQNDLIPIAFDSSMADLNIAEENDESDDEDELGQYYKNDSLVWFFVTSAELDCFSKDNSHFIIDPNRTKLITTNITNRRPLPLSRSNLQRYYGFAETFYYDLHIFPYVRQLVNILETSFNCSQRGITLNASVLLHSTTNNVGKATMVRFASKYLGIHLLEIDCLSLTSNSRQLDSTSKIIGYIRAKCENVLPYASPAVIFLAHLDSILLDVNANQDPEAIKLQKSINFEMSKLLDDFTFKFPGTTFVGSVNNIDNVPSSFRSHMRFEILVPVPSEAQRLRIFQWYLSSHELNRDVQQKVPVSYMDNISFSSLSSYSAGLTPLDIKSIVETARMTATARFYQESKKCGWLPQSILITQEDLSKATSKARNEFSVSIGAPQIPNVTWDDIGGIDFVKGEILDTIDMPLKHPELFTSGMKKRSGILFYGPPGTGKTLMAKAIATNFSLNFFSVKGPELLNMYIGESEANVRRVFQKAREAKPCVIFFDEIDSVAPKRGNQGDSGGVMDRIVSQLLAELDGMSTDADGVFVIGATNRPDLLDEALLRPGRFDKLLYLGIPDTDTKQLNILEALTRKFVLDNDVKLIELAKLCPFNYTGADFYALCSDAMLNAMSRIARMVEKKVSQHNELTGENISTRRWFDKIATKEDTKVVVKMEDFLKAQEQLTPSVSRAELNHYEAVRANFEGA
Entries and their Kd values follow.
Report the figure in µM without appending any unit label.

BINDER: Pex15 1-309 L22A L23A (domain or fragment, S. cerevisiae, UniProt Q08215 1-309, looked up, also called Pex15 L22AL23A; source: E. coli BL21*, purified (Ni-NTA, tag cleaved with PreScission protease, Superdex 200); not shown: His, C-terminal, cleaved) MAASEIMNNLPMHSLDSSLRDAANDDLFIESDESTKSVNDQRSEVFQECVNLFIKRDIKDCLEKMSEVGFIDITVFKSNPMILDLFVSACDIMPSFTKLGLTLQSEILNIFTLDTPQCIETRKIILGDLSKLLVINKFFRCCIKVIQFNLTDHTEQEEKTLELESIMSDFIFVYITKMRTTIDVVGLQELIEIFIFQVKVKLHHKKPSPNMYWALCKTLPKLSPTLKGLYLSKDVSIEDAILNSIDNKIQKDKAKSKGKQRGVKQKIHHFHEPMLHNSSEEQVKVEDAFNQRTSTDSRLQSTGTAPRKK
UNIT_ABBREV: µM
Kd: 8.7

BINDER: Pex15 12-309 (domain or fragment, S. cerevisiae, UniProt Q08215 12-309, looked up, begins at M12 (primer 'Pex15 M12 forward', D1:p20); source: E. coli BL21*, purified (Ni-NTA, tag cleaved with PreScission protease, Superdex 200); not shown: His, C-terminal, cleaved) MHSLDSSLRDLLNDDLFIESDESTKSVNDQRSEVFQECVNLFIKRDIKDCLEKMSEVGFIDITVFKSNPMILDLFVSACDIMPSFTKLGLTLQSEILNIFTLDTPQCIETRKIILGDLSKLLVINKFFRCCIKVIQFNLTDHTEQEEKTLELESIMSDFIFVYITKMRTTIDVVGLQELIEIFIFQVKVKLHHKKPSPNMYWALCKTLPKLSPTLKGLYLSKDVSIEDAILNSIDNKIQKDKAKSKGKQRGVKQKIHHFHEPMLHNSSEEQVKVEDAFNQRTSTDSRLQSTGTAPRKK
UNIT_ABBREV: µM
Kd: 0.86

BINDER: Pex15 43-309 (domain or fragment, S. cerevisiae, UniProt Q08215 43-309, looked up, begins at S43 (primer 'Pex15 S43 forward', D1:p20); source: E. coli BL21*, purified (Ni-NTA, tag cleaved with PreScission protease, Superdex 200); not shown: His, C-terminal, cleaved) SEVFQECVNLFIKRDIKDCLEKMSEVGFIDITVFKSNPMILDLFVSACDIMPSFTKLGLTLQSEILNIFTLDTPQCIETRKIILGDLSKLLVINKFFRCCIKVIQFNLTDHTEQEEKTLELESIMSDFIFVYITKMRTTIDVVGLQELIEIFIFQVKVKLHHKKPSPNMYWALCKTLPKLSPTLKGLYLSKDVSIEDAILNSIDNKIQKDKAKSKGKQRGVKQKIHHFHEPMLHNSSEEQVKVEDAFNQRTSTDSRLQSTGTAPRKK
UNIT_ABBREV: µM
Kd: 5.6

BINDER: Pex15 30-309 (domain or fragment, S. cerevisiae, UniProt Q08215 30-309, looked up, begins at E30 (primer 'Pex15 E30 forward', D1:p20); source: E. coli BL21*, purified (Ni-NTA, tag cleaved with PreScission protease, Superdex 200); not shown: His, C-terminal, cleaved) ESDESTKSVNDQRSEVFQECVNLFIKRDIKDCLEKMSEVGFIDITVFKSNPMILDLFVSACDIMPSFTKLGLTLQSEILNIFTLDTPQCIETRKIILGDLSKLLVINKFFRCCIKVIQFNLTDHTEQEEKTLELESIMSDFIFVYITKMRTTIDVVGLQELIEIFIFQVKVKLHHKKPSPNMYWALCKTLPKLSPTLKGLYLSKDVSIEDAILNSIDNKIQKDKAKSKGKQRGVKQKIHHFHEPMLHNSSEEQVKVEDAFNQRTSTDSRLQSTGTAPRKK
UNIT_ABBREV: µM
Kd: 5.3

Then there is this binder:
I have this binder here, Pex15 1-309 (cytosolic domain) (domain or fragment, S. cerevisiae, UniProt Q08215 1-309, looked up, likely here too; source: E. coli BL21*, purified (Ni-NTA, tag cleaved with PreScission protease, Superdex 200); not shown: His, C-terminal, cleaved) MAASEIMNNLPMHSLDSSLRDLLNDDLFIESDESTKSVNDQRSEVFQECVNLFIKRDIKDCLEKMSEVGFIDITVFKSNPMILDLFVSACDIMPSFTKLGLTLQSEILNIFTLDTPQCIETRKIILGDLSKLLVINKFFRCCIKVIQFNLTDHTEQEEKTLELESIMSDFIFVYITKMRTTIDVVGLQELIEIFIFQVKVKLHHKKPSPNMYWALCKTLPKLSPTLKGLYLSKDVSIEDAILNSIDNKIQKDKAKSKGKQRGVKQKIHHFHEPMLHNSSEEQVKVEDAFNQRTSTDSRLQSTGTAPRKK , and I need its recorded Kd.
0.58

Source listed as paper PMC5762779.
